method_description: Solubility of CBN in crystallization solvents (solvent screen)
Assay type: physicochemical
experimental_setup: organic solvent or mixture; solvent Iso-Octane; RT
measured_metric: solubility (mg/mL)
One number for each entry, in mg/mL.

Look up and report measured solubility for this entry: `CCCCCc1cc(O)c2c(c1)OC(C)(C)c1ccc(C)cc1-2`
24.9

---

method_description: Solubility of CBN in crystallization solvents (solvent screen)
Format: physicochemical
experimental_setup: organic solvent or mixture; solvent n-Heptane; RT
measured_metric: solubility (mg/mL)
Give bare numbers, in mg/mL.

Look up and state reported solubility for CCCCCc1cc(O)c2c(c1)OC(C)(C)c1ccc(C)cc1-2 [CBN, cannabinol]
33.4
